# method-notes: Half life in rat at 2.5 mg/kg, iv
# Format: ADME, organism-based
# Parameters: dose 2.5 mg/kg, route intravenous
# condition-details: in vivo
metric-name: half-life (h)
Give bare numbers, in h.

Prompt: Would you mind telling me what half-life value was observed for CC1CCC(NC(=O)NS(=O)(=O)c2ccc(CCNS(=O)(=O)c3ccc(Br)cc3)cc2)CC1 (stereo unspecified) ?
Completion: 1.91

----------
Field: Activity. Provide a value for each of the compounds that follow.
# method-notes: Effect on insulin release in rat pancreatic cells at 1 umol/L after 6 hrs by radioimmunoassay
# Type: functional
Just so you know, I need the unit written after the number.

As a guide, the following entries are already answered.
COc1ccc(NC(=S)NS(=O)(=O)c2ccc(CCNS(=O)(=O)c3ccccc3)cc2)cc1 ... 22.86 uIU/ml
O=S(=O)(NCCc1ccc(S(=O)(=O)NC(=S)Nc2ccc(Cl)cc2)cc1)c1ccc(Cl)cc1 ... 29.46 uIU/ml
Cc1ccc(NC(=S)NS(=O)(=O)c2ccc(CCNS(=O)(=O)c3ccc(C)cc3)cc2)cc1 ... 21.99 uIU/ml
O=C(NC1CCCCC1)NS(=O)(=O)c1ccc(CCNS(=O)(=O)c2ccc(Br)cc2)cc1 ... 32.09 uIU/ml
O=C(NC1CCCCC1)NS(=O)(=O)c1ccc(CCNS(=O)(=O)c2ccc(Cl)cc2)cc1 ... 33.95 uIU/ml
CC1CCC(NC(=O)NS(=O)(=O)c2ccc(CCNS(=O)(=O)c3ccccc3)cc2)CC1 (centres undefined) ... 32.15 uIU/ml
CC(=O)Nc1ccc(S(=O)(=O)NCCc2ccc(S(=O)(=O)NC(=O)NC3CCC(C)CC3)cc2)cc1 (centres undefined) ... 30.18 uIU/ml
Cc1ccc(S(=O)(=O)NCCc2ccc(S(=O)(=O)NC(=S)Nc3ccc(Cl)cc3)cc2)cc1 ... 23.89 uIU/ml
O=S(=O)(NCCc1ccc(S(=O)(=O)NC(=S)Nc2ccc(Cl)cc2)cc1)c1ccccc1 ... 28.94 uIU/ml
COc1ccc(NC(=S)NS(=O)(=O)c2ccc(CCNS(=O)(=O)c3ccc(C)cc3)cc2)cc1 ... 24.48 uIU/ml

# return Activity for each item in the list
1. Cc1ccc(NC(=S)NS(=O)(=O)c2ccc(CCNS(=O)(=O)c3ccccc3)cc2)cc1
2. O=C(NC1CCCCC1)NS(=O)(=O)c1ccc(CCNS(=O)(=O)c2ccccc2)cc1
3. CC1CCC(NC(=O)NS(=O)(=O)c2ccc(CCNS(=O)(=O)c3ccc(Cl)cc3)cc2)CC1 (centres undefined)
4. COc1ccc(NC(=S)NS(=O)(=O)c2ccc(CCNS(=O)(=O)c3ccc(Cl)cc3)cc2)cc1
5. CC(=O)Nc1ccc(S(=O)(=O)NCCc2ccc(S(=O)(=O)NC(=O)NC3CCC(C)CC3)cc2)cc1C (centres undefined)

Completion:
1: 27.99 uIU/ml; 2: 22.86 uIU/ml; 3: 38.15 uIU/ml; 4: 24.05 uIU/ml; 5: 23.57 uIU/ml

Batch request: Activity per item, same order as input.
1. Cc1ccc(S(=O)(=O)NCCc2ccc(S(=O)(=O)NC(=O)NC3CCCCC3)cc2)cc1
2. COc1cc(S(=O)(=O)NCCc2ccc(S(=O)(=O)NC(=O)NC3CCC(C)CC3)cc2)ccc1NC(C)=O (centres undefined)
3. COc1ccc(NC(=S)NS(=O)(=O)c2ccc(CCNS(=O)(=O)c3ccc(Br)cc3)cc2)cc1
4. CC1CCC(NC(=O)NS(=O)(=O)c2ccc(CCNS(=O)(=O)c3ccc(Br)cc3)cc2)CC1 (centres undefined)

Completion:
1: 22.45 uIU/ml; 2: 24.57 uIU/ml; 3: 22.25 uIU/ml; 4: 40.79 uIU/ml
